Record form. Attribute: drug sensitivity score. Fill in for each entry.
System: MDA-MB-468
Experiment: drug sensitivity score (DSS), CellTiter-Glo (DSS (AUC-based score)); higher = stronger drug effect (viability inhibition or cytotoxicity); extreme values may be limits of the assay
Settings: incubation time: 72 h
One number for each entry.

Past entries and their recorded results:
1. CC(=O)O[C@@]12CO[C@@H]1C[C@H](O)[C@@]1(C)C(=O)[C@H](O)C3=C(C)[C@@H](OC(=O)[C@H](O)[C@@H](NC(=O)OC(C)(C)C)c4ccccc4)C[C@@](O)([C@@H](OC(=O)c4ccccc4)[C@H]21)C3(C)C	27.3
2. CC1=C2C[C@H]3[C@@H](CC=C4C[C@@H](O)CC[C@@]43C)[C@@H]2CC[C@]12O[C@@H]1C[C@H](C)CN[C@H]1[C@H]2C	0
3. COc1cc2c(cc1O)CC[C@@H]1[C@@H]2CC[C@]2(C)[C@@H](O)CC[C@@H]12	4.21

Hey, can you go through the list below and give me drug sensitivity score for every item?
1. CC(C)(C)c1cnc(CSc2cnc(NC(=O)C3CCNCC3)s2)o1
2. CC1(C)CNc2cc(NC(=O)c3cccnc3NCc3ccncc3)ccc21

OUTPUT:
[28.1, 0.164]

Where these numbers come from: the supplement of paper PMC4862054
